Test system: CT26
PROCEDURE TEXT: cells
MEASUREMENT SETUP: Mus musculus, CT26, 48 h
Documented IC50 across a set of compounds
MEASURE: IC50 (µM)

CC(C)c1ccc(-c2cccc(S(=O)(=O)N3CCCC(c4cccc(OC(C)(C)C(=O)NS(=O)(=O)c5ccc(C(F)(F)F)cc5)c4)C3)c2)cc1 (configuration not stated) ... 4.74
O=C1[C@H](Cc2ccc(O)cc2)N2C(=O)CCN(C(=O)NCc3ccccc3)[C@H]2CN1Cc1cccc2ccccc12 ... 18.6

###

System: RKO
PROCEDURE TEXT: cells
MEASUREMENT SETUP: Homo sapiens, 48 h
pIC50: −log10 of the molar value.
MEASURE: pIC50

O=C1[C@H](Cc2ccc(O)cc2)N2C(=O)CCN(C(=O)NCc3ccccc3)[C@H]2CN1Cc1cccc2ccccc12 ... 4.11

###

EXPERIMENTAL SYSTEM: Beta catenin-BCL9 (Mus musculus, UniProt Q02248+Q9D219)
Sequence (Q02248 whole entry): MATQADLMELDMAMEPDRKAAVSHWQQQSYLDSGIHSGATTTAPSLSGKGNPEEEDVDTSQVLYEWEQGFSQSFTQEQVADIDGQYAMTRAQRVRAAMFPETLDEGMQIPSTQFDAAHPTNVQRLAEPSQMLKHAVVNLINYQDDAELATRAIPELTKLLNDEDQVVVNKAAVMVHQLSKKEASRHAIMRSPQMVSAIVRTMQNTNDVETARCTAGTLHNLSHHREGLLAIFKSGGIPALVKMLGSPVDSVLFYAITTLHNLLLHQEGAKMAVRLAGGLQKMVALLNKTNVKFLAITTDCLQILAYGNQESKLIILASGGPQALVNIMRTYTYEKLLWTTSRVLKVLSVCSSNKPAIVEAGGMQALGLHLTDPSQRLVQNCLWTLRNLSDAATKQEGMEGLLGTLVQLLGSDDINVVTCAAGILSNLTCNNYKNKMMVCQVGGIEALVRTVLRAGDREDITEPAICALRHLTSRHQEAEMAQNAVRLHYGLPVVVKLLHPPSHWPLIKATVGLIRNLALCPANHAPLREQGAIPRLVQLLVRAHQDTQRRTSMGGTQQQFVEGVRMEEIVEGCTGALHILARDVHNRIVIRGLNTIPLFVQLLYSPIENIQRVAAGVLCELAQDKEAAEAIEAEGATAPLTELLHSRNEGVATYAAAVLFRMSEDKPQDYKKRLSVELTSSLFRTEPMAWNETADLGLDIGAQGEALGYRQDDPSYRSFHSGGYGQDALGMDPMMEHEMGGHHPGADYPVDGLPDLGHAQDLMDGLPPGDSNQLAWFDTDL
Sequence (Q9D219 whole entry): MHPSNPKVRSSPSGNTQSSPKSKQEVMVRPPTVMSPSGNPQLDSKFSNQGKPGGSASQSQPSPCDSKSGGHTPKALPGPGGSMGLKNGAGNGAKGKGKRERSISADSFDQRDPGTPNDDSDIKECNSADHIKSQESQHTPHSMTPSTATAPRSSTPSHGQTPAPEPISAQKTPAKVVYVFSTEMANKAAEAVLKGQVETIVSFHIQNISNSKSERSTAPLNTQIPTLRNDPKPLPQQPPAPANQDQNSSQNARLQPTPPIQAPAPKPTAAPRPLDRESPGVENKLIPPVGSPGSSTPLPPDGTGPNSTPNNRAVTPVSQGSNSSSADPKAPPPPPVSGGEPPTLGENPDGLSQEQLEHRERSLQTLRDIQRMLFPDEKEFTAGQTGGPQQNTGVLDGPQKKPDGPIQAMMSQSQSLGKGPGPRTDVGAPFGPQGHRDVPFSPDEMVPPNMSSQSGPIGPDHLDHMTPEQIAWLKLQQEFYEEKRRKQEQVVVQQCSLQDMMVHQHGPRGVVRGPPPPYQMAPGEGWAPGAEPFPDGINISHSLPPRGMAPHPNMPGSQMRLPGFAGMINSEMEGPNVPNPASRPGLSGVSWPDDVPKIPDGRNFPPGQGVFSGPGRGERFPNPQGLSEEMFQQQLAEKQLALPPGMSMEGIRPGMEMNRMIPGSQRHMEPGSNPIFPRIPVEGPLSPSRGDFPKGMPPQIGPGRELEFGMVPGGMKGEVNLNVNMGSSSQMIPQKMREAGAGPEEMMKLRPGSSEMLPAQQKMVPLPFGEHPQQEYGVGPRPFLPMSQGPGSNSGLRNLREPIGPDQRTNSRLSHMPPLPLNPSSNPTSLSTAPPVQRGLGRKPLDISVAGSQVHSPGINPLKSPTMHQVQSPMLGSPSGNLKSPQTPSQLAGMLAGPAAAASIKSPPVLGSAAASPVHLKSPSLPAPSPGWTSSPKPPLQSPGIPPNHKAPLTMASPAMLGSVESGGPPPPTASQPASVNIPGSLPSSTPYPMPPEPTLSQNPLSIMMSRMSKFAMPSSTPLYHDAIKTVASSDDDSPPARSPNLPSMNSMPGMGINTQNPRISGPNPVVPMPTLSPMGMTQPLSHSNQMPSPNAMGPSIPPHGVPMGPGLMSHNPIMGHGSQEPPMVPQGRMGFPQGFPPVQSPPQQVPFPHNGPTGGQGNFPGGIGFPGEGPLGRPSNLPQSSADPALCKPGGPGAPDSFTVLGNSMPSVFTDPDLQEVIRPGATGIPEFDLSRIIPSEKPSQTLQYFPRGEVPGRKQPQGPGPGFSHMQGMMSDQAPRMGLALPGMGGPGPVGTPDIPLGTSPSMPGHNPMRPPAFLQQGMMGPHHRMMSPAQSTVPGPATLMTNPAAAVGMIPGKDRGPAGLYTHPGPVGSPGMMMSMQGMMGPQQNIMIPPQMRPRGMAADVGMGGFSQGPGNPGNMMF
PROCEDURE TEXT: Inhibition of beta-catenin/BCL9 protein-protein interaction in Wnt-dependent mouse CT26 cells assessed as reduction in Axin2 expression level by qRT-PCR assay
Assay type: cell-based
Documented IC50 across a set of compounds
MEASURE: IC50 (nM)

O=C1[C@H](Cc2ccc(O)cc2)N2C(=O)CCN(C(=O)NCc3ccccc3)[C@H]2CN1Cc1cccc2ccccc12 ... 4620
CC(C)c1ccc(-c2cccc(S(=O)(=O)N3CCCC(c4cccc(OC(C)(C)C(=O)NS(=O)(=O)c5ccc(C(F)(F)F)cc5)c4)C3)c2)cc1 (configuration not stated) ... 660

###

PROCEDURE TEXT: Microsomal stability in human liver microsomes assessed as half life at […] and measured upto 60 mins by LC-MS/MS analysis
Format: ADME, Microsome
MEASURE: half-life (min)

CC(C)c1ccc(-c2cccc(S(=O)(=O)N3CCCC(c4cccc(OC(C)(C)C(=O)NS(=O)(=O)c5ccccc5)c4)C3)c2)cc1 (stereo not given) ... 8.67
CC(C)c1ccc(-c2cccc(S(=O)(=O)N3CCC[C@@H](c4cccc(OC(C)(C)C(=O)NS(=O)(=O)c5ccc(C(F)(F)F)cc5)c4)C3)c2)cc1 ... 69.3
CC(C)c1ccc(-c2cccc(S(=O)(=O)N3CCCC(c4cccc(OC(C)(C)C(=O)NS(=O)(=O)c5cccs5)c4)C3)c2)cc1 (stereo not given) ... 6.17
CC(C)c1ccc(-c2cccc(S(=O)(=O)N3CCCC(c4cccc(OC(C)(C)C(=O)NS(=O)(=O)c5ccc(C(F)(F)F)cc5)c4)C3)c2)cc1 (stereo not given) ... 32.1
CC(C)c1ccc(-c2cccc(S(=O)(=O)N3CCC[C@H](c4cccc(OC(C)(C)C(=O)NS(=O)(=O)c5ccc(C(F)(F)F)cc5)c4)C3)c2)cc1 ... 21.8

###

PROCEDURE TEXT: Cmax in Sprague-Dawley rat at 21 mg/kg, ip and measured upto 24 hrs by LC-MS analysis
Format: ADME, organism-based
Set-up: dose 21 mg/kg, time < 24 hrs, route ip
MEASUREMENT SETUP: in vivo
MEASURE: Cmax (ng/mL)

CC(C)c1ccc(-c2cccc(S(=O)(=O)N3CCCC(c4cccc(OC(C)(C)C(=O)NS(=O)(=O)c5ccc(C(F)(F)F)cc5)c4)C3)c2)cc1 (stereo unspecified) ... 6960

###

EXPERIMENTAL SYSTEM: beta-catenin-B-cell lymphoma 9 protein complex (Homo sapiens, UniProt P35222)
Sequence (P35222 whole entry): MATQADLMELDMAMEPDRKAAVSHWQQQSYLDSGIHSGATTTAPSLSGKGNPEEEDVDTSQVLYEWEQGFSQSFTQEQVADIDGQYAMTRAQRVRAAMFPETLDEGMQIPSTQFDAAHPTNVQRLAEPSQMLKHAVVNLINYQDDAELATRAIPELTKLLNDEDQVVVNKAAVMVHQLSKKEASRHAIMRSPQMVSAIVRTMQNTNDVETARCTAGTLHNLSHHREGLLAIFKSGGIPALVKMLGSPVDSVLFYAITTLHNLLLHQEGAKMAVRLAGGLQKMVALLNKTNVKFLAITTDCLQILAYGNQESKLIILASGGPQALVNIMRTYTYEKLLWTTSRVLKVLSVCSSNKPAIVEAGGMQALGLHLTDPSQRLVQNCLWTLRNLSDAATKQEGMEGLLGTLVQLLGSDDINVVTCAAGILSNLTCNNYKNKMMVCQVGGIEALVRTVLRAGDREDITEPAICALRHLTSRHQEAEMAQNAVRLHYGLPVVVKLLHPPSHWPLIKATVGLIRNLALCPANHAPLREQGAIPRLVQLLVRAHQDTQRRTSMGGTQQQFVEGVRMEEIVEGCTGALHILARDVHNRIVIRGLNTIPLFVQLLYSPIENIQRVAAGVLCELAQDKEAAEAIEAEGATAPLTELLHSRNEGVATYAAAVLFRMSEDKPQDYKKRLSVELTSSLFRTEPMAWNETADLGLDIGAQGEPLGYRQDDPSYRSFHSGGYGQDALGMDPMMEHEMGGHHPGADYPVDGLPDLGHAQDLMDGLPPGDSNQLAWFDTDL
Sequence (O00512 whole entry): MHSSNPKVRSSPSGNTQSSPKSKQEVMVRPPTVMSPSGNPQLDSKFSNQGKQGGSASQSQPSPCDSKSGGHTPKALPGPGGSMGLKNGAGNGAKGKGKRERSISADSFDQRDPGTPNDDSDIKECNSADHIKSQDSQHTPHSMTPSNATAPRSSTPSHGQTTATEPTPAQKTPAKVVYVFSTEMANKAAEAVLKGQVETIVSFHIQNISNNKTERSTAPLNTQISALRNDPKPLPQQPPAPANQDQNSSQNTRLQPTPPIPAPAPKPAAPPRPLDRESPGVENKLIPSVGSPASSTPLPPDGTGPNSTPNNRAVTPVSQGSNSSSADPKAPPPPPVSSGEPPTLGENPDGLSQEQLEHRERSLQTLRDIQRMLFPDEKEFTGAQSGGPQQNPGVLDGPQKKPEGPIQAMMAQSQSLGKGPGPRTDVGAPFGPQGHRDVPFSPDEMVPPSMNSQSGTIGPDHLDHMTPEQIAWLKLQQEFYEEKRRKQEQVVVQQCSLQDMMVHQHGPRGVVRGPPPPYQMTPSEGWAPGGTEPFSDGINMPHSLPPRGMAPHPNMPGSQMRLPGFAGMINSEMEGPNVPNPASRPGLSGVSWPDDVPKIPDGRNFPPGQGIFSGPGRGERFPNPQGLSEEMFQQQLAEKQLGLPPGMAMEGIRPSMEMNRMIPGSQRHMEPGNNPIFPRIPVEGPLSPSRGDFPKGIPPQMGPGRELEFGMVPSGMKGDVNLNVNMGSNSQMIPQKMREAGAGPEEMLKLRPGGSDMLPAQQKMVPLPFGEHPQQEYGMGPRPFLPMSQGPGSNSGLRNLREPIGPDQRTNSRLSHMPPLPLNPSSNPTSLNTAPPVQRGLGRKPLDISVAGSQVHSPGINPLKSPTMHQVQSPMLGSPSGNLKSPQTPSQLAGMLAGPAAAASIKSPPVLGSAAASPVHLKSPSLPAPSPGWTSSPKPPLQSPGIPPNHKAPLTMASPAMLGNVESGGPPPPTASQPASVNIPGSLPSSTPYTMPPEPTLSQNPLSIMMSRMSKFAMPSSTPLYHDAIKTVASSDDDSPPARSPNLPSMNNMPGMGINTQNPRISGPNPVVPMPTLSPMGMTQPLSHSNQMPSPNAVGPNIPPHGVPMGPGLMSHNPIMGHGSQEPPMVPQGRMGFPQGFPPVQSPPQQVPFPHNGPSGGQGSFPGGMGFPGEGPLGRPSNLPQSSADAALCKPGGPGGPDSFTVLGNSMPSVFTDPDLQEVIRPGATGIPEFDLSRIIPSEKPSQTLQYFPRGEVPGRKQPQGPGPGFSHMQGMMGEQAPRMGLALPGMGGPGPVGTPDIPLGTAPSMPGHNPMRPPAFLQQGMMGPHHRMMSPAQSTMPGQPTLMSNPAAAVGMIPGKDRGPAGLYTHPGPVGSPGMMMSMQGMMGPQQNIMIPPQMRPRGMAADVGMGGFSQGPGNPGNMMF
PROCEDURE TEXT: Inhibition of beta-catenin/BCL9 protein-protein interaction in Wnt-dependent human SW480 cells assessed as reduction in Axin2 expression level by qRT-PCR assay
Assay type: cell-based
pIC50: −log10 of the molar value.
MEASURE: pIC50

O=C1[C@H](Cc2ccc(O)cc2)N2C(=O)CCN(C(=O)NCc3ccccc3)[C@H]2CN1Cc1cccc2ccccc12 ... 4.97

###

EXPERIMENTAL SYSTEM: beta-catenin-B-cell lymphoma 9 protein complex (Homo sapiens, UniProt P35222)
PROCEDURE TEXT: Inhibition of full-length recombinant beta-catenin (1 to 781 residues) (unknown origin)/N-terminal biotinylated BCL9-HD2 (unknown origin) protein-protein interaction assessed as inhibition constant incubated for 90 mins by AlphaScreen assay
Format: protein-complex assay
MEASURE: Ki (µM)

CC1CCCN(CCCNC(=O)C2=Cc3sc4c(c3CS2)CCCC4)C1 (stereo unspecified) ... 9

# credit: ChEMBL document CHEMBL5316313
